Assignment: determine reported pIC50 for the given molecules.
- measured target: Eukaryotic initiation factor 4A-I (Homo sapiens)
- method notes: Inhibition of human recombinant N-terminal His6-tagged eIF4A expressed in Escherichia coli BL21 CodonPlus cells using ATP and yeast RNA as substrate preincubated with enzyme for 20 mins followed by susbtrate addition and measured after 4 hrs by Malachite green ATPase assay
# pIC50: negative log10 of molar concentration; output just the value

Provide pIC50 value for the following molecule: CCCCc1ccc(-c2ccc(-c3cc(C(=O)OCC)c4cc(Br)ccc4n3)o2)cc1
3.89

Provide pIC50 value for the following molecule: CCCCc1ccc(-c2ccc(-c3cc(C(=O)O)c4cc(-c5ccccc5)ccc4n3)o2)cc1
3.91

Provide pIC50 value for the following molecule: CCCCc1ccc(-c2ccc(-c3cc(C(=O)O)c4cc([N+](=O)[O-])ccc4n3)s2)cc1
4.21

Provide pIC50 value for the following molecule: O=C(O)c1cc(-c2ccc(-c3cccc(Oc4ccccc4)c3)o2)nc2ccc([N+](=O)[O-])cc12
4.65

Provide pIC50 value for the following molecule: CCCCc1ccc(-c2cccc(-c3cc(C(=O)O)c4cc([N+](=O)[O-])ccc4n3)n2)cc1
4.07

Provide pIC50 value for the following molecule: CC(C)(C)OC(=O)Nc1cccc(-c2ccc(-c3cc(C(=O)O)c4cc([N+](=O)[O-])ccc4n3)o2)c1
3.96

Provide pIC50 value for the following molecule: CCCCc1ccc(-c2ccc(-c3cc(C(=O)O)c4cccc(Cl)c4n3)o2)cc1
4.13

Provide pIC50 value for the following molecule: CCCCc1ccc(-c2ccc(-c3cc(C(=O)O)c4cc(Cl)c(Cl)cc4n3)o2)cc1
4.05

Provide pIC50 value for the following molecule: CCCCc1ccc(-c2ccc(-c3cc(C(=O)O)c4cccc(Br)c4n3)o2)cc1
4.62

Provide pIC50 value for the following molecule: CCCCc1ccc(-c2ccc(-c3cc(C(=O)O)c4cc(C)ccc4n3)o2)cc1
3.98

Provide pIC50 value for the following molecule: CCCc1ccc(-c2ccc(-c3cc(C(=O)O)c4cc([N+](=O)[O-])ccc4n3)o2)cc1
4.39

Provide pIC50 value for the following molecule: CCCCc1ccc(-c2ccc(-c3cc(C(=O)O)c4cccc(C(F)(F)F)c4n3)o2)cc1
4.57

Provide pIC50 value for the following molecule: CCCCc1ccc(-c2ccc(-c3cc(C(=O)O)c4cc([N+](=O)[O-])ccc4n3)[nH]2)cc1
4.20

Provide pIC50 value for the following molecule: CCCCc1ccc(-c2ccc(-c3cc(C(=O)O)c4ccc(Br)cc4n3)o2)cc1
4.48

###

- measured target: Eukaryotic initiation factor 4A-I (Homo sapiens, UniProt P60842)
- Sequence (P60842 whole entry): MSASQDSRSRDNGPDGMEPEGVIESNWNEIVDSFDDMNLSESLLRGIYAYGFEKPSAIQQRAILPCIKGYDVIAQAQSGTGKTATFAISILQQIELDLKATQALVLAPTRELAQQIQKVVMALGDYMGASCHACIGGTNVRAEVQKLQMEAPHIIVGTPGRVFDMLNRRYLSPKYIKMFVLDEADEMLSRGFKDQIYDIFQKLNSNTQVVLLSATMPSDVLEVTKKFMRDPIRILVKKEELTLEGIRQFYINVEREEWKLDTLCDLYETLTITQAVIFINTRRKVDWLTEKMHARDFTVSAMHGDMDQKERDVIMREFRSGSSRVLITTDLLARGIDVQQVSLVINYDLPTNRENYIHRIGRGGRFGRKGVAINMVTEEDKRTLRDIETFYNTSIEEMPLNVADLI
- method notes: Inhibition of human recombinant N-terminal His6-tagged eIF4A expressed in Escherichia coli BL21 CodonPlus cells using ATP and yeast RNA as substrate preincubated with enzyme for 20 mins followed by susbtrate addition and measured after 4 hrs by Malachite green ATPase assay
measured attribute: pEC50
# pEC50: negative log10 of molar concentration; output just the value

Provide pEC50 value for the following compound: CCCCc1ccc(-c2ccc(-c3cc(C(=O)O)c4cccc([N+](=O)[O-])c4n3)o2)cc1
4.56

###

- measured target: Eukaryotic initiation factor 4A-I (Homo sapiens, UniProt P60842, T158V)
- Sequence (P60842 2-406 T158V limits assumed): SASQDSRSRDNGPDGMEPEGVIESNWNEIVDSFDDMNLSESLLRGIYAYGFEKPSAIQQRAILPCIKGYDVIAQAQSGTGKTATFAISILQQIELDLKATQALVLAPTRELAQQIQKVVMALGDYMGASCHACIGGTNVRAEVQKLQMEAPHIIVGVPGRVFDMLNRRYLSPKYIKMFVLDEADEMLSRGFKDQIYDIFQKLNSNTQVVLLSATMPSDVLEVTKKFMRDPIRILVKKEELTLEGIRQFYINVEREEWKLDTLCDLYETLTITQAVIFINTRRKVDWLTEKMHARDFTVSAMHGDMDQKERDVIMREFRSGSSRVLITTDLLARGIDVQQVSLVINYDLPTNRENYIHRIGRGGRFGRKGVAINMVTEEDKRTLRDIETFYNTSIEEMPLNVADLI
- method notes: Inhibition of human recombinant N-terminal His6-tagged eIF4A T158V mutant expressed in Escherichia coli BL21 CodonPlus cells using ATP and yeast RNA as substrate preincubated with enzyme for 20 mins followed by susbtrate addition and measured after 4 hrs by Malachite green ATPase assay
pIC50: −log10 of the molar value.
measured attribute: pIC50

Provide pIC50 value for the following molecule: CCCCc1ccc(-c2ccc(-c3cc(C(=O)O)c4cc([N+](=O)[O-])ccc4n3)o2)cc1
< 4.30
